System: VEGF-A mRNA expression in macrophages (RAW264.7)
Assay: In vitro macrophage experiment: activity of compounds to promote VEGF-A mRNA expression (RT-qPCR)
Assay type: cell-based
Conditions: Mus musculus, RAW264.7, 3 h, read-out: Expression level of VEGF-A mRNA
measuredQuantity: fold induction at 3000 µM
Reply briefly: the number, and no unit.

Respond only with fold induction at 3000 µM recorded for COc1ccc(N(CCCO[C@@H]2O[C@H](CO)[C@@H](O)[C@H](O)[C@H]2O)C(=O)OCc2ccccc2)cc1 [TG-035]
0.2

Respond only with fold induction at 3000 µM recorded for COc1ccc(CN(CCO[C@@H]2O[C@H](CO)[C@@H](O)[C@H](O)[C@H]2O)C(=O)OC(C)(C)C)cc1 [TG-033]
0.04

Respond only with fold induction at 3000 µM recorded for COc1ccc(OCCCO[C@@H]2O[C@H](CO)[C@@H](O)[C@H](O)[C@H]2O)cc1 [TG-031]
0.7

Respond only with fold induction at 3000 µM recorded for COc1ccc(COCCO[C@@H]2O[C@H](CO)[C@@H](O)[C@H](O)[C@H]2O)cc1 [TG-032]
0.96
